Experiment summary: NCI Yeast Anticancer Drug Screen. Data for the cln2 rad14 strain (AID 165);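 further: 0% = growth equal to vehicle treated cultures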
Measurement setup: S. cerevisiae cln2 rad14 strain, at 50.0 µM, stronger effect = higher value
Compounds without any hit were thinned out: in the full panel of roughly 79,000, 15% have a hit.
Assay endpoint: growth inhibition (%)
Numbers only, in %.

Please review the following examples before continuing.
1) COc1ccc2nc3cc([N+](=O)[O-])ccc3c(Nc3ccc(S(=O)(=O)N=C(N)N)cc3)c2c1 :: 12.8
2) COC1(OC)C(Cl)=C(Cl)C2C1C1(Cl)C(Cl)=C(Cl)C2(Cl)C1(OC)OC (stereo not drawn) :: 13.6
3) O=C(N1CCOCC1)C12OC3CC(CC(C3)O1)O2 :: 11.2
4) CCC[N+]1([O-])CCOCC1 :: 26.4
5) O=C(c1ccccc1)c1nc2ccc(Cl)cc2cc1C(Br)Br :: 15.1
6) CCOC(=O)c1c(C)c(C)cc(C)c1C :: 6.15

Please state, for each entry, its recorded growth inhibition.
1. O=C1CN(c2cccc(Cl)c2)C(=O)CN1/N=C/c1ccc(O)c(O)c1
2. CC1=CC(=O)[C@@H](O)[C@]2(C)[C@H]3[C@@]4(O)OC[C@]35[C@H]([C@@H](CO)[C@H]4O)[C@@H](OC3OC(CO)C(O)C(O)C3O)C(=O)O[C@@H]5C[C@@H]12 (stereo partly drawn)
3. CCc1cc(Cc2cc(Cl)c(NC(=O)C(=O)C3NC(=O)NC3=O)c(CC)c2)cc(Cl)c1NC(=O)C(=O)C1NC(=O)NC1=O (stereo not drawn)
4. CC(C)CNC(=O)O
5. Cc1ccc2nc(-c3cccc([N+](=O)[O-])c3)c(N=O)n2c1
6. CCOC(=O)/C(C#N)=C\NC(=O)NC
7. Cc1ccc(-n2cnc3c(=O)[nH]cnc32)cc1N
8. CC(C)(S(=O)(=O)Oc1ccccc1)S(=O)(=O)Oc1ccccc1

output:
[-6.95, 2.65, 15.9, -6.15, -14.9, -18.4, -9.9, -16.9]

---

Experiment summary: NCI Yeast Anticancer Drug Screen. Data for the bub3 strain (AID 167)
Measurement setup: S. cerevisiae bub3 mutant strain, at 50.0 µM, stronger effect = higher value
The panel holds about 79,000 compounds, 15% with a hit somewhere; the sample as a whole holds those more often. Activity calls are given as the source filed them. Cut-off read from the data, not from the text of the source: active = growth inhibition above about 70%; inactive = the rest.
Assay endpoint: growth inhibition

Please state, for each entry, its recorded growth inhibition.
1. S=c1[nH][nH]c(=S)c2[nH]cnc12
2. CC(C)[C@@H]1CC[C@@H](C)C[C@H]1OC(=O)/C=C1\C(C(=O)O[C@@H]2C[C@H](C)CC[C@H]2C(C)C)[C@H]2C=C[C@@H]1O2 (stereo partly drawn)
3. COc1ccc(/C=C2\Cc3ccccc3C2=O)cc1OC
4. CCCCN(C(C)=O)c1ccccc1
5. O/N=C/c1ccccn1
6. O=C(O)C1CC2(CCC1c1ccccc1)SCCS2 (stereo not drawn)

output:
1. 2.2% (inactive)
2. -27.1% (inactive)
3. -25.4% (inactive)
4. -9.4% (inactive)
5. -9.5% (inactive)
6. 6.5% (inactive)

---

Experiment summary: NCI Yeast Anticancer Drug Screen. Data for the mec2-1 strain (AID 157)
Measurement setup: S. cerevisiae mec2-1 strain, at 50.0 µM, stronger effect = higher value
Compounds without any hit were thinned out: in the full panel of roughly 79,000, 15% have a hit.
Assay endpoint: growth inhibition (%)
Give bare numbers, in %.

Please review the following examples before continuing.
1. O=C(OCC1OC(n2ccc(=O)[nH]c2=O)C(F)C1OC(=O)c1ccccc1)c1ccccc1 (centres undefined) :: 4.3
2. O=c1nc(Oc2ccccc2)nc2c3ccccc3ccn12 :: 16.1
3. c1ccc(N(c2ccccc2)C(c2ccccc2)(c2ccccc2)c2ccccc2)cc1 :: -2.65
4. Cc1sc2ncnc(Cl)c2c1C :: 13.2

Please state, for each entry, its recorded growth inhibition.
1. O=C1CC(c2ccccc2)NCN1 (centres undefined)
2. O=C(N/N=C/c1ccccc1F)c1ccncc1
3. ClC(=Nc1cccc(Cl)c1)C(Cl)=Nc1cccc(Cl)c1
4. C#CC(N)=O
5. O=C(O)COc1ccc(C2CCCCC2)cc1
6. S=c1s/c(=C\c2ccccc2)c2nc3ccccc3n12

output:
1
5
-1.7
11.4
3.3
9.2

---

Experiment summary: NCI Yeast Anticancer Drug Screen. Data for the mec2-1 strain (AID 157)
Measurement setup: S. cerevisiae mec2-1 strain, at 50.0 µM, stronger effect = higher value
Compounds without any hit were thinned out: in the full panel of roughly 79,000, 15% have a hit.
# label = True if growth inhibition >= -10% else False

input: Is it the case that `c1ccc(-c2coc(-c3ccccc3)c2)cc1` has growth inhibition reaching or exceeding -10%?
output: False

input: Lookup `O=C1C(SCCO)=C(SCCO)C(=O)c2[nH]cnc21`
output: False

input: Lookup CCOC(=O)CCC(NC(=O)c1ccc(NCc2ccc3nc(-c4ccccc4)c(Cl)nc3c2)cc1)C(=O)OCC (stereo not given)
output: True

input: Lookup CCC(NC(C)c1ccccc1)C(O)c1ccc(OCc2ccccc2)c(OCc2ccccc2)c1 (stereo not given)
output: True

input: Lookup N=C1N=Nc2nc(C(C(=O)c3cccs3)c3nc4n(c3O)C(=N)N=N4)c(O)n21 (stereo not given)
output: True

input: Lookup CCCCC(O)c1ccc[n+]([O-])c1 (stereo not given)
output: False

input: Lookup Cc1ccc(S(=O)(=O)OC2C3C4CCC5C3SC3C5C4C23)cc1 (stereo not given)
output: False

input: Lookup `Cc1nc(N)[nH]c(=O)c1CCCN=Cc1ccc([N+](=O)[O-])cc1`
output: True

input: Lookup C=C1C(=O)O[C@@H]2/C=C(/C)[C@@H](OC(C)=O)C/C=C(\C)C(O)[C@@H](OC(=O)/C(C)=C\C)C12 (stereo not given in full)
output: True

input: Lookup `CCOC(=O)Cc1c(C)cc(C)cc1C`
output: True

---

Experiment summary: NCI Yeast Anticancer Drug Screen. Data for the mlh1 rad18 strain (AID 175)
Measurement setup: S. cerevisiae mlh1 rad18 strain growth inhibition; at 50.0 µM; stronger effect = higher value
About 79,000 compounds went through this panel and 15% of them were active in at least one assay; those are over-represented in the sample as a whole.
Exercise: for every item that follows, state its recorded growth inhibition.
Numbers only, in %.

1) NC1=NC(=S)CS1 :: 9.35
2) CCC(=O)c1cc(-c2ccccc2)nc2ccc(OC)cc12 :: -24.4
3) CCN=c1c([N+](=O)[O-])c(NC(=O)c2ccccc2)sn1CC :: -5.7

Please state, for each entry, its recorded growth inhibition.
1. O=C(N/N=C\c1ccc(Cl)cc1Cl)c1ccc(F)cc1
2. CC(=O)OCc1cc(OC(C)=O)cnc1COC(C)=O
3. CCOC(=O)C(C)Sc1ncnc2nc[nH]c12 (stereo not given)
4. CN(C)CCNC1=CC(=O)c2nc3ccccc3c3ccnc1c23

output:
1. -4.1
2. -36.2
3. -0.9
4. 27.4

Please state, for each entry, its recorded growth inhibition.
1. NCC=C1C2CC3CC(C2)CC1C3
2. O=C(CC(c1ccccc1)C1CCCN(c2ccccc2)S1(=O)=O)c1ccccc1 (stereo not given)
3. CCCCCCCCCCCCCCCCCCCCCCCCCC(=O)O
4. CCCCCCCCCCCCCCCCSS(=O)(=O)O
5. CC(C)(c1ccc(O)c([N+](=O)[O-])c1)c1ccc(O)c([N+](=O)[O-])c1
6. c1ccc2[nH]c(CN3CCCCC3)cc2c1
7. Cc1cc(S(=O)(=O)Nc2nc3ccccc3[nH]2)c(S)cc1Cl

output:
[12.6, 23.1, 4.95, 4.9, 7.2, 11.8, 40.6]

Please state, for each entry, its recorded growth inhibition.
1. O=C(O)C(O)(O)C(O)(O)C(=O)O
2. NC(=O)c1ccc(=S)[nH]c1
3. CC1CCOC(c2ccc(C(C)C)cc2)O1 (stereo not given)
4. O=C1OCC/C1=C\c1ccc(Br)cc1
5. CC(C)=CCC[C@@H](C)C1[C@@H](OC2OC(CO)C(O)C(O)C2O)CC2(C)[C@@H]3CC(=O)C4C(C)(C)[C@@H](OC5OC(CO)C(O)C(O)C5O)CC[C@@]45C[C@@]35CC[C@]12C (stereo not given in full)

output:
-10.4
14.7
-0.15
-1.1
-25.4

Please state, for each entry, its recorded growth inhibition.
1. Cc1nn(C(=O)c2ccc(Cl)cc2)c2c1C(c1ccccc1[N+](=O)[O-])SC(N)=N2 (stereo not given)
2. O=C(CCl)NCCc1ccccc1
3. CCOC(=O)C(c1ccccc1)C(C)c1ccccc1 (stereo not given)
4. CCOC(=O)/C(C#N)=C/c1ccnc2ccccc12
5. CC(C)(N)COC(=O)c1ccc([N+](=O)[O-])cc1
6. COC(=O)N/N=C(\c1ccc(OC)cc1)C(c1ccc(OC)cc1)C1(O)C(=O)Nc2c(C)cc(Cl)cc21 (stereo not given)

output:
-9.05
1.1
-12.2
-23.1
10.2
18.6

src = PubChem BioAssay (NCI)
